Biological target: T1, Macaca fascicularis PDGFRb.mmh (Macaca fascicularis)
T1 construct: Soluble monomeric construct; also called mfPDGFRb.mmh
T1 chain: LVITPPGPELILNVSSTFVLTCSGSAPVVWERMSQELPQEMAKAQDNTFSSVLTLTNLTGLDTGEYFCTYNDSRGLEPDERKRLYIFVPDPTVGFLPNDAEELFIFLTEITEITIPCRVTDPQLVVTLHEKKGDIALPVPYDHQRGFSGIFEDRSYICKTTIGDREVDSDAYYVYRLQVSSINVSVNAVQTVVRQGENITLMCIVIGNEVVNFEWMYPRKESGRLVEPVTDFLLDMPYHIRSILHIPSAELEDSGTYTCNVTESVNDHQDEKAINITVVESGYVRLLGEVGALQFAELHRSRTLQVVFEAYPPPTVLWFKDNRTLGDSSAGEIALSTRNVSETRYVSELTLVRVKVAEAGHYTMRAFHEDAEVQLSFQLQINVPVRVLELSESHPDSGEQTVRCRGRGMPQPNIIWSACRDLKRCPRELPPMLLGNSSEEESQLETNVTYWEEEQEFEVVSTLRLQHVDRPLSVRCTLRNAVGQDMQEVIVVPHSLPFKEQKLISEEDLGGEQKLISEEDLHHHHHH
Test: SPR, mAb captured, 25 C
Method: Antibodies, expressed as either mouse Fc (prefix H1M; H2M) or human Fc (prefix H4H), were captured on their respective anti-Fc sensor surfaces (Mab capture format). […] Kinetic association (kₐ) and dissociation (kd) rate constants were determined by processing and fitting the data to a 1:1 binding model using Scrubber 2.0 curve fitting software.
Consider the following binders; for each one, report its t1/2.
Hi! Could you send only the number? It should be in min, unit omitted.

Task item: Please give the measured t1/2 for this binder: H1M3361N (antibody, mouse IgG1, V domains shown, mouse IgG1 Fc (H1M prefix)) VH: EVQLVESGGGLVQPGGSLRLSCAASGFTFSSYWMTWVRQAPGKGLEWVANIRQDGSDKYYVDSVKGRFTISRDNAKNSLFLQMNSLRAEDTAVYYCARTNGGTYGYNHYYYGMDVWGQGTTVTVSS VL: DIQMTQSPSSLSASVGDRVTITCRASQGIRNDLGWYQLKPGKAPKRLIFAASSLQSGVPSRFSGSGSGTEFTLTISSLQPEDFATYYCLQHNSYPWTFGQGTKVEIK
Reply: 297

Task item: Try H4H3096S (antibody, human IgG4, V domains shown, human IgG4 Fc (H4H prefix)) VH: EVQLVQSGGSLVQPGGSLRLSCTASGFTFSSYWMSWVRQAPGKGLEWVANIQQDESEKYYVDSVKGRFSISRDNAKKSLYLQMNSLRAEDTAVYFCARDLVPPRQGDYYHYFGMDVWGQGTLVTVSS VL: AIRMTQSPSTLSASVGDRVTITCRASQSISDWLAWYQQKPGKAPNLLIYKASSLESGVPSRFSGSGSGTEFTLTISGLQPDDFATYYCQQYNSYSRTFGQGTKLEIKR next.
Reply: 10

Task item: Try H4H3374N (antibody, human IgG4, V domains shown, human IgG4 Fc (H4H prefix)) VH: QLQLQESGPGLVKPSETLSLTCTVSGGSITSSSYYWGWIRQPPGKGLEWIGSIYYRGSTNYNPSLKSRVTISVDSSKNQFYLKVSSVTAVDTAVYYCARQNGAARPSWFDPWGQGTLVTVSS VL: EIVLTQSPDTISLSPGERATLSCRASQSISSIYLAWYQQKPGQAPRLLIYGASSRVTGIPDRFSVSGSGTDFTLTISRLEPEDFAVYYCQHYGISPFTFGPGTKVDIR next.
Reply: 24
